# target: UniProt:P09917
# Sequence (P09917 whole entry): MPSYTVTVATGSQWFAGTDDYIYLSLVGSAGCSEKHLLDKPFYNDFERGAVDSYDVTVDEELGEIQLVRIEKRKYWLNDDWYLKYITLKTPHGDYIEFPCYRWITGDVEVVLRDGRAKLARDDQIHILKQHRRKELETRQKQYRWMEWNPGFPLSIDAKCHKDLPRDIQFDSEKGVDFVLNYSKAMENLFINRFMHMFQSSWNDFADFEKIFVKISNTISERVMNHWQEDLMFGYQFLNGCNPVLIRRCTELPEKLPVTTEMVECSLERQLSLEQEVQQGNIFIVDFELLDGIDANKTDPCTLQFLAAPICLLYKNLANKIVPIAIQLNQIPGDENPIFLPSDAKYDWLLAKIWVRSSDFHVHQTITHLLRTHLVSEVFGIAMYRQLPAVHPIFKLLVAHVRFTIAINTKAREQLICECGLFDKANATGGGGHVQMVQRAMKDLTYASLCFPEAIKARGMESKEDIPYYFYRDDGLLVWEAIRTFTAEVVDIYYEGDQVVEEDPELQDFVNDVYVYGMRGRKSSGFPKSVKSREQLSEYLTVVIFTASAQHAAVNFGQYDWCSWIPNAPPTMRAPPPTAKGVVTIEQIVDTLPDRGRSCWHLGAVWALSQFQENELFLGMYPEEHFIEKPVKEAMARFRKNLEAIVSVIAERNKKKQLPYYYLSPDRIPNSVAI
# experiment.description: Inhibition of human 5-LOX in A23187-induced human whole blood assessed as reduction in LTB4 production pre-incubated for 20 mins before A23187 addition by enzyme immunoassay
IC50 by entry:

Past entries and their recorded results:
- N#C/C(=C(/O)c1ccc(Cl)c([N+](=O)[O-])c1)c1nc2ccccc2s1: > 100 µM
- CC(C)(C)OC(=O)NNS(=O)(=O)c1cccc([N+](=O)[O-])c1: > 100 µM
- O=[N+]([O-])c1ccc(CSc2cc3ccccc3[nH]2)c([N+](=O)[O-])c1: 23.9 µM
- O=C(NC1c2ccccc2Oc2ccccc21)c1ccc(Cl)c([N+](=O)[O-])c1: > 100 µM
- Cc1cc(Cl)ccc1NC(=O)Cn1nnc2sc3c(c2c1=O)CCCC3: > 100 µM
- COc1ccc(/C=C2\N=C(c3ccc(Cl)c([N+](=O)[O-])c3)OC2=O)c(OC)c1OC: > 100 µM
- Cc1ccc2cccc(OC(=O)c3cccc([N+](=O)[O-])c3)c2n1: > 100 µM
- COC(=O)c1ccc(NC(=S)NC(=O)c2cc(-c3ccccc3)nc3ccccc23)cc1: > 100 µM

"CCOc1cc(/C=N\Nc2nc3ccccc3s2)cc([N+](=O)[O-])c1O" has a reported IC50 of 40 µM

get_value(item= "c1ccc(SCc2nnc3sc(-c4ccc5c(c4)OCCO5)nn23)cc1" , readout=IC50) returns > 100 µM

Sourced from ChEMBL document CHEMBL2163330
